target: human 11β-HSD1 (Homo sapiens); construct: expressed in transfected cells; assay: Enzyme inhibitory activity assay, lysate of HEK293 cells stably expressing human 11β-HSD1, cortisol by competitive ELISA; type: biochemical; conditions: Table 1; cell lysate, 100 nmol/L cortisone, NADPH, 37° C. 1 hour; read-out: in vitro assay (IC50 uM) h HSD1
Sequence (P28845 whole entry): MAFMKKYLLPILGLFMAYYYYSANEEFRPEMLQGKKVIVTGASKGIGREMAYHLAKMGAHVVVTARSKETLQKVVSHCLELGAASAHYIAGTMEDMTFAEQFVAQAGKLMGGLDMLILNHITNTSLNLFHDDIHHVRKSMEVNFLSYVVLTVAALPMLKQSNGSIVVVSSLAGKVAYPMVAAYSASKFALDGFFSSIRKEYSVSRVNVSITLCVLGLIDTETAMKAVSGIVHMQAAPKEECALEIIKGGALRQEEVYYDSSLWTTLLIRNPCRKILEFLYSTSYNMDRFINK
Quantity: IC50 (µM)

Compound	Val
CC(C)(C)c1ccc(C2N(C3C4CC5CC(C4)CC3C5)C(=O)C2(C)C)cc1 (centres unmarked) [Example 38]	0.079
COC(=O)[C@]12CC3CC(C1)[C@@H](N1C(=O)C(C)(C)C1c1cccc4cccnc14)C(C3)C2 (some centres unmarked) [Example 18]	0.029
COC(=O)[C@]12CC3CC(C1)[C@@H](N1C(=O)C(C)(C)C1c1cccc4ccccc14)C(C3)C2 (some centres unmarked) [Example 10]	0.019
CC1(C)C(=O)N([C@H]2C3CC4CC2C[C@](C(=O)O)(C4)C3)C1c1cccc(Cl)c1Cl (some centres unmarked) [Example 8]	0.066
CC1(C)C(=O)N(C2C3CC4CC(C3)CC2C4)C1c1cccc(C(F)(F)F)c1Cl (centres unmarked) [Example 30]	0.016
CC1(C)C(=O)N(C2C3CC4CC(C3)CC2C4)C1c1cccc2ccccc12 (centres unmarked) [Example 45]	0.0081

a. CC1(C)C(=O)N(C2C3CC4CC(C3)CC2C4)C1c1cccc(Cl)c1 (centres unmarked) [Example 53]
b. CC1(C)C(=O)N([C@H]2C3CC4CC2C[C@](C(N)=O)(C4)C3)C1c1cccc2ccccc12 (some centres unmarked) [Example 12]
c. CC1(C)C(=O)N(C2C3CC4CC(C3)CC2C4)C1c1ccccc1C(F)(F)F (centres unmarked) [Example 41]
d. CC1(C)C(=O)N(C2C3CC4CC(C3)CC2C4)C1c1cc(F)c(F)c(F)c1 (centres unmarked) [Example 36]
Could you please sort these 4 entries by IC50 from high to low? The labels, placed in the requested order, form the answer. d, b, c, a

1. CC1(C)C(=O)N([C@H]2C3CC4CC2C[C@](F)(C4)C3)C1c1cccc(Cl)c1Cl (some centres unmarked) [Example 52]
2. COc1ccc(C2N(C3C4CC5CC(C4)CC3C5)C(=O)C2(C)C)cc1 (centres unmarked) [Example 23]
Given the two records 1 and 2 , choose the one whose IC50 value is lower. When you have decided, please share the label of that item. 1

1. CC1(C)C(=O)N(C2C3CC4CC(C3)CC2C4)C1c1cc(C(F)(F)F)cc(C(F)(F)F)c1 (centres unmarked) [Example 54]
2. CC1(C)C(=O)N([C@H]2C3CC4CC2C[C@@](Cl)(C4)C3)C1c1cccc2ccccc12 (some centres unmarked) [Example 6]
Form field 'greater IC50' accepts 1 or 2 ; which applies? Write the label of whichever entry you select. 1
(1: 0.91 µM, 2: 0.56 µM)

====

molecular target: mouse 11β-HSD1 (Mus musculus); construct: expressed in transfected cells; test: Enzyme inhibitory activity assay, lysate of CHO-K1 cells stably expressing mouse 11β-HSD1, cortisol by competitive ELISA; format: biochemical; conditions: Table 2; cell lysate, 100 nmol/L cortisone, NADPH, 37° C. 1 hour; read-out: in vitro assay (IC50 uM) m HSD1
Sequence (P50172 whole entry): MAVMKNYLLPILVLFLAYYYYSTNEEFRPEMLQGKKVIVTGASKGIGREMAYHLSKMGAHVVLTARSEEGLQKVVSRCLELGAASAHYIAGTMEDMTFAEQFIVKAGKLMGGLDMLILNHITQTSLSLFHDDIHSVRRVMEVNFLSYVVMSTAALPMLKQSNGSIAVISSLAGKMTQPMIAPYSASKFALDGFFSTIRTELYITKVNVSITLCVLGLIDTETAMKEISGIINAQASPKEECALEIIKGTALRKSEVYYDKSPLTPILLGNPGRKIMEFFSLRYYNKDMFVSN
Quantity: IC50 (µM)

Below, 8 compounds whose answers are already recorded.
Compound	IC50 [µM]
CC1(C)C(=O)N([C@H]2C3CC4CC2C[C@@](Cl)(C4)C3)C1c1cccc2ccccc12 (some centres unmarked) [Example 6]	0.87
CC1(C)C(=O)N(C2C3CC4CC(C3)CC2C4)C1c1cccc2c1OCCCC2 (centres unmarked) [Example 68]	0.02
CC1(C)C(=O)N(C2C3CC4CC(C3)CC2C4)C1c1cccc(C(F)(F)F)c1Cl (centres unmarked) [Example 30]	0.13
CC1(C)C(=O)N(C2C3CC4CC(C3)CC2C4)C1c1cccc(Cl)c1Cl (centres unmarked) [Example 2]	0.054
CC1(C)C(=O)N(C2C3CC4CC(C3)CC2C4)C1c1cccc2c1OCC=CC2 (centres unmarked) [Example 67]	0.029
CC1(C)C(=O)N([C@H]2C3CC4CC2C[C@](Cl)(C4)C3)C1c1cccc(Cl)c1Cl (some centres unmarked) [Example 3]	0.31
COC(=O)[C@]12CC3CC(C1)[C@@H](N1C(=O)C(C)(C)C1c1cccc(Cl)c1Cl)C(C3)C2 (some centres unmarked) [Example 7]	0.25
CC1(C)C(=O)N(C2C3CC4CC(C3)CC2C4)C1C1(c2ccc(Cl)cc2)CC1 (centres unmarked) [Example 70]	0.0078

A. COc1ccc(C2N([C@H]3C4CC5CC3C[C@](O)(C5)C4)C(=O)C2(C)C)c2ccccc12 (some centres unmarked) [Example 48]
B. CC1(C)C(=O)N([C@H]2C3CC4CC2C[C@](O)(C4)C3)C1c1cccc(Cl)c1Cl (some centres unmarked) [Example 46]
C. CC1(C)C(=O)N(C2C3CC4CC(C3)CC2C4)C1c1cccc(F)c1F (centres unmarked) [Example 24]
D. CC1(C)C(=O)N(C2C3CC4CC(C3)CC2C4)C1C1(c2ccccc2)CC1 (centres unmarked) [Example 71]
E. CC1(C)C(=O)N(C2C3CC4CC(C3)CC2C4)C1c1cccc(C(F)(F)F)c1F (centres unmarked) [Example 28]
Arrange the 5 entries by IC50 so the values rise. Would you mind listing the labels in the order requested? D, B, C, E, A
(D: 0.0061 µM, B: 0.029 µM, C: 0.1 µM, E: 0.16 µM, A: 0.33 µM)

P. CC1(C)C(=O)N([C@H]2C3CC4CC2C[C@](C(=O)O)(C4)C3)C1c1cccc2ccccc12 (some centres unmarked) [Example 11]
Q. COC(=O)[C@]12CC3CC(C1)[C@@H](N1C(=O)C(C)(C)C1c1cccc4c1OCO4)C(C3)C2 (some centres unmarked) [Example 13]
Compare P and Q and name the one whose reported IC50 is smaller. Answer by stating the label of the chosen item. Q
(Q: 0.24 µM, P: 0.42 µM)

1. CC1(C)C(=O)N(C2C3CC4CC(C3)CC2C4)C1c1ccccc1 (centres unmarked) [Example 1]
2. CC1(C)C(=O)N([C@H]2C3CC4CC2C[C@](C(N)=O)(C4)C3)C1c1cccc2c1OCO2 (some centres unmarked) [Example 15]
Decide: 1 or 2 , by lowest recorded IC50. Your choice should be expressed through its label. 2
